These measurements were taken from PubChem BioAssay (NCI).

System: NCI-H322M lung
RUN DESCRIPTION: NCI-60 one-dose screen, 48 h (100 = growth as untreated, 0 = no growth, -100 = all killed)
ASSAY SETUP: 10 µM unless noted
About 83,000 compounds went through this panel and 20% of them were active in at least one assay; those are over-represented in the sample as a whole. Active and inactive are the calls of the source. The calls were made as follows: active = growth percent below 10; inactive = the rest.
Below, each entry is listed alongside its reported growth.

Field: example entries. Status: answers known.
{"columns": ["COMPOUND", "MEASURED VALUE"],
 "data": [
  ["Cc1c(CN2CCN(C(=O)[C@H](C)O)CC2)sc2c(N3CCOCC3)nc(-c3cnc(N)nc3)nc12", "-26.1% (active)"],
  ["CO[C@@H](C(=O)N1Cc2[nH]nc(NC(=O)c3ccc(N4CCN(C)CC4)cc3)c2C1)c1ccccc1", "-0.392% (active)"],
  ["COc1cc(F)c(F)c(Nc2ccc(I)cc2F)c1NS(=O)(=O)C1(C[C@H](O)CO)CC1", "14.2% (inactive)"],
  ["C[N+](C)(CCOC(c1ccccc1)c1ccccc1)CC(=O)OCc1ccccc1", "90.6% (inactive)"]
]}

[Q] Please report the measured growth for N#Cc1c(-c2ccc(C(F)(F)F)cc2)c(F)c(NCCC2CCC(O)C2)n2c1nc1ccccc12 (centres undefined)
[A] 58.5% (inactive)

[Q] Output measured growth for this item: Cc1nn(-c2nc3ccccc3[nH]2)c2c1C(c1ccc(O)cc1)CC(=O)N2 (centres undefined)
[A] 104% (inactive)

[Q] Name the recorded growth of the compound listed here: `COc1ccc(C(=O)N2c3ccccc3Sc3ccccc32)c(F)c1`
[A] 44.2% (inactive)

[Q] Dear colleague, please send me the reported growth for `CNC(=O)c1ccccc1Nc1nc(Nc2ccc3c(c2OC)CCC[C@H](N2CCN(CCO)CC2)C3)ncc1Cl` when you can.
[A] 5.21% (active)

[Q] Retrieve growth measured for CC(C)C1CCC(C)C(C2(C#N)C(N)=NC(N)=C2C#N)C1=O (centres undefined) and print it.
[A] 98.8% (inactive)
